Items are presented alongside their recorded TGI.
System: NCI-H522 lung
Method notes: NCI tumour cell line growth inhibition, 48 h

Worked examples, 3 compounds total:
Clc1ccc(C=NC23CC4CC(CC(C4)C2)C3)cc1Cl | > 10 µM
COC(OC)C1OC(CO)C(n2cc(F)c(=O)[nH]c2=O)C1O (centres undefined) | > 100 µM
COC(=O)c1ccccc1NC(=O)C(=O)CC(=O)CC(c1ccccc1)c1c(O)c2ccccc2oc1=O (centres undefined) | > 100 µM

Q: Can you look up the measured TGI of CCC1(N=[N+]=[N-])C(=O)c2ccccc2N(c2ccccc2)C1=O (centres undefined) for me?
Result: > 100 µM
